Every entry's value here was drawn from the supplement of paper PMC9170038.

Tested on: K4 kissing-loop RNA reporter;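 further: bound reporter read as fluorescence of individual clusters on recovered sequencing chips by microscopy, with normalized cluster intensities fitted with a binding model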
test: apparent KD of K4 kissing-loop reporter; higher = weaker reporter binding
applied conditions: Eterna round: R107; input ligand: FMN 200 uM
parameter: apparent KD of K4 kissing-loop reporter (nM)
Field format: number, assumed nM, no unit text.

Which measured apparent KD of K4 kissing-loop reporter value corresponds to GAGAGCUCUGGAGGAUAUGAGUCUAGUGAUGUUAGGCGGUCCAUGCGCGUGGCGCGUUAUGCCCUUUUAGAAGGCCAGAGCUCUC [#2 Exclusion - FMN B Attempt #19 (HarryS)] ?
98.3

# apparent KD of K4 kissing-loop reporter lookup, item CAUACGCAUGGAGGAUAUGAGAUUACUCAUAUCAUUUAAUAUUCUCAGUGAUGUUGAGAUUUAGGCUCAGAAGGCCAUGUGUAUG [Ex FMN B 14]
271

# query: apparent KD of K4 kissing-loop reporter of entry ACGUAGUACGUAGGAUAUCAGAGAUCAGUUAGUGAGAUCGAGUGAUGUUCGAUCAAGUGUUCAUUUUGAGAAGGAUGUAGUAGGA [KL-SSFMN-B7]
263

Given AACUGUCAAGGACAACAUUACUGAGGUGAUACCAGCAUCGAAAGAUGCCCUUGGCAGCACCAACUUGCAGUGAUGUUGCAAGUAA [Design6] , state its recorded apparent KD of K4 kissing-loop reporter.
212

Given the entry AGUGAUGUAGUGUGUUGUUUGUGAAGUGAUCGAGGACCGGUACGGCCGCCACUCGAGUGAUGAGUGAGUGAUGUUUGUUUAGUGG [#18 K4 Tryptophan A Same State] , report its measured apparent KD of K4 kissing-loop reporter.
379

For AAUAUAUAGUGAAGGAGCGCGAUAAGCAGUGAUGUUGCUUUGUUAUGAUUGUCUAUUUUUACGCAGGUAGGUCGCACUAUAUAUA [JR_ExcArginiB_Sub020] , what is its reported apparent KD of K4 kissing-loop reporter?
165

Value lookup for apparent KD of K4 kissing-loop reporter; key = GGAUUGCGUUCGGCCGCCACUAGACUACAUUCCACGCCCGACCCGUUUUUAAGUGAUGUUUAAACUAGGACCGGGAACCGAUUUC [theeternabot_exclusion_KL_Trp_B_33]
435

Recorded apparent KD of K4 kissing-loop reporter of "GGUAGCAUGGCGGCCGCCACUUAUGUUCACAUAGUGAUGUUAUGUUCACAUUUAUGGCCCUGCUUAAGGACCGGGCCAUGCUACC" , please.
118

Any idea what its apparent KD of K4 kissing-loop reporter is? The sequence is ACAUCGGUUGAGAGUGAUGUUCCUUGUGUUCGAGGACCGGUACGGCCGCCACUCGGGUAGAAAAUAAAAGAUGUGUUUGAUUUUU [BDazzled - #15 SS Tryptophan A]
260

GET /values?readout=apparent KD of K4 kissing-loop reporter&item= UUUUAGGUAUCUGAUACCAGAGAAAAUAUAUGUAGUGAUGUUAUAUACAAAAUAAUUAAGCUCCCUUGGCAGCAGUAUUAAUUUU [AstrosExc-TheB#3]
825

Suppose we examine the sequence AUCCGAGAAUAUGAUACCAGCUGAGUGUAUCAAGACCGUAUCUCCCGUGCUAGUGAUGUUAGCCCUUGGCAGCAUAUGAAAGCGG [theeternabot_exclusion_KL_Theo_B_15] ; what apparent KD of K4 kissing-loop reporter value has been reported?
635

Query: apparent KD of K4 kissing-loop reporter; subject: AACGUUUUGAGAAGGAGCGCGAUAAGCAGUGAUGUUGCUAUAAUUCUAUUUCUAUUUAAUUCGCAGGUAGGUCGCUCAAUACGUA [JR_SSArginiB_Sub019]
136

Find the recorded apparent KD of K4 kissing-loop reporter belonging to AUGUCUGAUAGCAGUGAUGUUGCUUCGGAUACCAGACGCGAUCUUGUCCCUUGGCAGCUGACACGGCACGUGCUAGGUUAGAAGG [whbob_Ex_Theo_A_th75] and report it.
169

So what does the record say about apparent KD of K4 kissing-loop reporter for CUGGGUUGACGAAAAGUCAACAAACGAGAAGGAGCGCACGAAAGUGCAGGUAGGUCGCUCAGUCCAGUGAUGUUGGAUCAUCCAG [#SwitchBubble 9 #K4Late] ?
265

For UGUACCGAGUCAGGAUAUCAAAAUAAUUGGAGUGAUGUUCCAAAUACGACUGACAAAGUCGGUCGAUGAGAAGGGACUUGGUACU [FmnBS 11 #SwitchBubble #StaticStem] , what is its reported apparent KD of K4 kissing-loop reporter?
118

Query (sequence): "CUUGUACAUGCCGAGGUAGGUGCGGGUUAGCGAGGACCGGUACGGCCGCCACUCGCCAAGUGAUGUUUGGUCCUUUGGGUCGGCA" ; field requested: apparent KD of K4 kissing-loop reporter
948

Give its apparent KD of K4 kissing-loop reporter value. Item: UGUGUUGUUGUGAUGUUUGGUGUUGCAGGGCAGGAUAUCGUAGAGGCGAGAAGGGCUUUUGUGCGGUAUGAGUGAUGUUUGUAGG [rrcgsmullin]
197
